Measured Percent Effect values are reported for all entries that follow.
molecular target: Ubiquitin-activating enzyme e1, putative (Leishmania donovani (strain BPK282A1)); assay: Leishmania donovani Ubiquitin Activating Enzyme (LdE1); format: functional; parameters: scale not given: direction of the effect not stated beside the values; conditions: 30 µM
Measured potencies and affinities stand elsewhere.
measurement name: Percent Effect (%)

# molecule, measurement name, u, reading
records = [
    ("CCC(CNC(=O)c1cc(OC)ccc1Br)N1CCc2ccccc2C1 (centres undefined)", "Percent Effect", "%", 0),
    ("N#Cc1ncn(CCC(=O)Nc2c(Cl)cccc2Cl)n1", "Percent Effect", "%", 2.74),
    ("Cc1cnn(CC2CCCN2CC(=O)N(C)Cc2ccc(C)o2)c1 (centres undefined)", "Percent Effect", "%", 0),
    ("CC(CNC(=O)Nc1ccc(N(C)C)nc1)Cn1cccn1 (centres undefined)", "Percent Effect", "%", 4.17),
    ("Cc1ncoc1C(=O)N1C[C@H]2CCC[C@@]2(COCC2CCOCC2)C1", "Percent Effect", "%", 0),
    ("CC(C)(C)c1ncc(C(=O)NCCS(N)(=O)=O)s1", "Percent Effect", "%", 2.63),
    ("CC(C)c1n[nH]c(C(=O)Nc2cc[nH]n2)c1Br", "Percent Effect", "%", 5.06),
    ("Cc1cnn(C2CCCN(C(=O)Cc3cn4ccccc4n3)C2)c1 (centres undefined)", "Percent Effect", "%", 19),
    ("Cc1[nH]ccc1C(=O)Nc1cccc(CN2CCC(O)CC2)c1", "Percent Effect", "%", 10.5),
    ("CCc1nc(C2CCCN(C(=O)c3cccc4cn[nH]c34)C2)no1 (centres undefined)", "Percent Effect", "%", 5.41),
    ("COc1c(CNC2CCN(C(=O)C3CC3)CC2)c(C(C)C)nn1C", "Percent Effect", "%", 21.1),
    ("O=C(NC1CC1)[C@@H]1CCO[C@@H]2CCN(Cc3ccsc3)C[C@H]21", "Percent Effect", "%", -8.11),
    ("Cc1oc(C(=O)O)cc1S(=O)(=O)Nc1cc(Cl)ccc1F", "Percent Effect", "%", 5.2),
    ("COC(=O)C(c1cc(F)ccc1F)N(C)C(=O)c1ccnc(C)n1 (centres undefined)", "Percent Effect", "%", -46.8),
    ("Cc1noc2ncc(C(=O)NCC3CCN(C(C)C)C3)cc12 (centres undefined)", "Percent Effect", "%", 2.63),
    ("CC(c1ccc(F)c(F)c1)N1CCN(Cc2nccn2C)CC1 (centres undefined)", "Percent Effect", "%", 20.8),
    ("Cc1cc(C)n(CC(C)CNC(=O)[C@@H](C)NC(=O)OC(C)(C)C)n1 (some centres undefined)", "Percent Effect", "%", 7.89),
    ("Fc1cccc(-c2nc(CN3CCOC(Cn4cccn4)C3)co2)c1 (centres undefined)", "Percent Effect", "%", 2.7),
    ("Cc1ccc(C(=O)NCCCNS(C)(=O)=O)cc1-n1cccc1", "Percent Effect", "%", 13.2),
    ("CCc1nnc2n1CCN(C(=O)c1cnc3ccccc3n1)C2", "Percent Effect", "%", 4.17),
    ("CC(=O)NCCC1CCCCN1S(=O)(=O)c1cccc(C#N)c1 (centres undefined)", "Percent Effect", "%", 8.22),
    ("CN(c1cccnn1)C1CCN(C(=O)c2ccc3c(c2)COC3)CC1", "Percent Effect", "%", -44.2),
    ("CN1CCCC1c1ccc(C(=O)N2CCc3ccccc3C2)s1 (centres undefined)", "Percent Effect", "%", -16.2),
    ("COc1c(C)cnc(CSc2nnc(C)s2)c1C", "Percent Effect", "%", 5.33),
]
